Molecular target: the molecule itself
Assay: SEC; Superdex 200 HR 10/30; 2 μM as a dimer loaded; 10 mM MES pH 6.0, 500 mM NaCl; oligomeric state estimated against standard proteins
Endpoint label: binding result

Protein	Assay value
R.PabI(K154A-P27G-T28G) mutant (enzyme, Pyrococcus abyssi, UniProt Q9V2B6 8-226, looked up, R.PabI, restriction DNA glycosylase of Pyrococcus abyssi, residues 8-226, cloned into pET26b; Mr = 25 219 printed; Called a dimer in the methods (loaded '2 μM as a dimer'); source: E. coli Rosetta(DE3)pLysS, purified (heat 80°C, TOYOPEARL AF-Heparin, Mono S)) EASVSFENGKIVVRLPITRGGSKIRVKKIENGVGIPVSTRKKSFPSDENLRDYYIEWQISYARDGKYDYELSRMVRLAHEHGILTYNDIYELLKFADDVKSYLEDKGIRRESTNEELYGFNIYEDVYPVAKKELPSGEFIGIVLKHAQRAVGYQSMVYVCIPLTNVEPSLAGRVARRNEVVKYEVPVDLMKELLKAFIIASETHKNDIVKFLRSIIGTS	binds
